Test system: PXR:RXRa (NR concentration 270 nM, RXRa partner concentration 90 nM)
test-name: PBM binding z-score (relative to random genomic background probes); higher = stronger binding; sequences stand for … in GC…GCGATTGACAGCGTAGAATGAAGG
The label depends only on PBM binding z-score: T if it is at least 2, F if it is smaller.

[[record]]
biosequence = "TCTACTTGGTCACGGAGGTCACACACGACGGGTA"
target_desc = "PXR:RXRa (NR concentration 270 nM, RXRa partner concentration 90 nM)"
assigned_label = "T"

[[record]]
biosequence = "TCGAGTAGGTTACGGGAGCATTCAGGGATGAAGA"
target_desc = "PXR:RXRa (NR concentration 270 nM, RXRa partner concentration 90 nM)"
assigned_label = "F"

[[record]]
biosequence = "CAAACTAGGTCACGAAAGGTCAAAATCGAATGAC"
target_desc = "PXR:RXRa (NR concentration 270 nM, RXRa partner concentration 90 nM)"
assigned_label = "T"

[[record]]
biosequence = "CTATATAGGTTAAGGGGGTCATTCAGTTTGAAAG"
target_desc = "PXR:RXRa (NR concentration 270 nM, RXRa partner concentration 90 nM)"
assigned_label = "T"


Is PBM binding z-score for "ATATGTAGGTTAGGGTCACTCAGAAAGTAGGGAA" at or above 2?
T

Decide: PBM binding z-score of "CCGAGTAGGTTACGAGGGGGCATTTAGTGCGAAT" >= 2?
T

Given the entry "CCTAGCAGGCCACGGTCACTCAAGCATTTCGCTT" , answer whether its PBM binding z-score meets or surpasses 2.
F

Is reported PBM binding z-score greater than or equal to 2 here: "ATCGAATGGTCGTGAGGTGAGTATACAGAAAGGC"
F

====

Test system: PPARg:RXRa IVT, anti-PPARg (NR concentration 270 nM, RXRa partner concentration 90 nM)
test-name: PBM binding z-score (relative to random genomic background probes); higher = stronger binding; sequences stand for … in GC…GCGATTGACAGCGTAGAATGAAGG
Assignment: determine reported PBM binding z-score for the given sequences.
Give bare numbers.

[[record]]
biosequence = "CGTCCAAGGTCAGAGAGGTCACTGAATGCCGAGT"
meas_value = 4.05

[[record]]
biosequence = "TCTTGTAGATCAAAGGTTAAGACAGCCGAAGCCT"
meas_value = 3.94

[[record]]
biosequence = "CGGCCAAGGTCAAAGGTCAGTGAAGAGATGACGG"
meas_value = 5.66

[[record]]
biosequence = "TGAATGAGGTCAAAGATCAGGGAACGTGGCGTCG"
meas_value = 6.25


Could you tell me PBM binding z-score for each of these sequences? They are listed below.
1. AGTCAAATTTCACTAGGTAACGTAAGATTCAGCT
2. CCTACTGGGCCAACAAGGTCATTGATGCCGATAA
3. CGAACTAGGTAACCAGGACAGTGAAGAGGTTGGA
4. GCTGCTAGGTCAACTGAGGGTCAGCTAAAGCTCG
5. ACTTGGAGGACAAAGGTCAGAGCTACGCCAGTGA
6. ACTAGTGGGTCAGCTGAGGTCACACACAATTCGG

2.38
4.68
5.77
4.17
5.22
6.96

Input "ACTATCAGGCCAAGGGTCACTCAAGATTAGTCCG" . Output PBM binding z-score: 3.82
